# tested-target: Proteinase-activated receptor 4 (Homo sapiens)
# experiment: Antagonist activity against PAR4 activating peptide domain in human platelets assessed as inhibition of P-selectin activation
property-label: pIC50
In textbook form, pIC50 equals minus log to base ten of the concentration in mol/L.

# input Please report pIC50 for the following compound: COc1nn2cc(-c3c(CO)n(Cc4ccccc4Cl)c4ccc(OC(F)(F)F)cc34)nc2s1
# output 6.88

---

# tested-target: Proteinase-activated receptor 4 (Homo sapiens) (UniProt Q96RI0)
# Sequence (whole entry): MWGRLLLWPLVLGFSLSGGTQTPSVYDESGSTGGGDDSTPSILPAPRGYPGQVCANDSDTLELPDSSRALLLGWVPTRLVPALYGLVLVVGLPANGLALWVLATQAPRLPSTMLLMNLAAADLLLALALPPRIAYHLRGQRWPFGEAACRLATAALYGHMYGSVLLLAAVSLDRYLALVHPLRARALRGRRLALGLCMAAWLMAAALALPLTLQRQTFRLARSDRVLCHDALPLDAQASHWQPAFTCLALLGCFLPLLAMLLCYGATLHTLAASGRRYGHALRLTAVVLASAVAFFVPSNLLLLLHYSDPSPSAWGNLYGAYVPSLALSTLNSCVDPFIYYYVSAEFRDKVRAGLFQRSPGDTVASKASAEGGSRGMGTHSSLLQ
# experiment: Antagonist activity against PAR4 activating peptide domain in human platelets assessed as inhibition of alpha2bbeta3 activation level at 10 uM by PAC1 binding assay
Threshold-based label: %max under 90% gives T, %max not under 90% gives F.

# input Hello, I'm reviewing records and need to know if %max of COc1ccc(-c2c(CO)n(C)c3ccc(C(F)(F)F)cc23)cn1 is below 90%. Could you check?
# output F

# input Hello, I'm reviewing records and need to know if %max of COc1ccc(-c2c(CO)n(Cc3ccc(F)cc3F)c3ccc(OC(F)(F)F)cc23)cn1 is below 90%. Could you check?
# output T

# input Hello, I'm reviewing records and need to know if %max of CCOc1ccc2c(-c3ccc(OC)nc3)c(CO)n(Cc3ccccc3Cl)c2c1 is below 90%. Could you check?
# output T

# input Hello, I'm reviewing records and need to know if %max of CCOc1ncc(-c2c(CO)n(Cc3ccccc3Cl)c3ccc(OC(F)(F)F)cc23)cn1 is below 90%. Could you check?
# output T

# input Hello, I'm reviewing records and need to know if %max of COc1ccc2c(-c3cnc(SC)nc3)c(CO)n(Cc3ccccc3Cl)c2c1 is below 90%. Could you check?
# output T

# input Hello, I'm reviewing records and need to know if %max of OCc1c(-c2ccncc2)c2cc(OC(F)(F)F)ccc2n1Cc1ccccc1Cl is below 90%. Could you check?
# output F

# input Hello, I'm reviewing records and need to know if %max of COc1ccc(-c2c(CO)n(Cc3cccc(C(F)(F)F)c3)c3ccc(OC(F)(F)F)cc23)cn1 is below 90%. Could you check?
# output T

# input Hello, I'm reviewing records and need to know if %max of CSc1ncc(-c2c(CO)n(Cc3ccccc3Cl)c3cc(OC(F)(F)F)ccc23)cn1 is below 90%. Could you check?
# output T

# input Hello, I'm reviewing records and need to know if %max of OCc1c(-c2cncnc2)c2cc(OC(F)(F)F)ccc2n1Cc1ccc(F)cc1F is below 90%. Could you check?
# output F

Values from ChEMBL document CHEMBL4477245
